// 100 nM Ag Bound (RU) lookup, one value per entry
Target: T1, human NPR1 extracellular domain expressed with a C-terminal mouse IgG2a (hNPR1-mFc) (human)
T1 construct: also called hNPR1-Fc; human NPR1 dimer
T1 chain: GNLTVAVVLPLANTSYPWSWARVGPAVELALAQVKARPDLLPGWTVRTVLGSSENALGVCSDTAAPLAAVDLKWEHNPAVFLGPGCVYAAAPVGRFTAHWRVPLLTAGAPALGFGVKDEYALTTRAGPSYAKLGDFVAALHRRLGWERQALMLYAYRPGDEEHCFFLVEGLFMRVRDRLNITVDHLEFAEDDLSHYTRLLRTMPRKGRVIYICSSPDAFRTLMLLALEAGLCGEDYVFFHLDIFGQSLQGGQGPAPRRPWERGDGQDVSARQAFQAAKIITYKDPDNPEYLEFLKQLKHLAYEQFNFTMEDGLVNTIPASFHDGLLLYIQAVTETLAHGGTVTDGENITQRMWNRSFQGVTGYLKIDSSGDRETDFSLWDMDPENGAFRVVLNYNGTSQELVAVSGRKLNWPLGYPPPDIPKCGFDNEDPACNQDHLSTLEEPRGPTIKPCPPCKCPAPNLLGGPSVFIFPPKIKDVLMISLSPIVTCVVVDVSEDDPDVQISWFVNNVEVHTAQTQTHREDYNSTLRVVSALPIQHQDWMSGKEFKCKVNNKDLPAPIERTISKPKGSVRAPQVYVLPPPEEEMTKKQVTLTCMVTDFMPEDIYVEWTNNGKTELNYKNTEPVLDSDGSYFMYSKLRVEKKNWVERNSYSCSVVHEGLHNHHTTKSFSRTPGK
Assay: SPR, mAb captured, 25 C

Enquiry: GET /values?readout=100 nM Ag Bound (RU)&item= mAb25479 (antibody, V domains shown) VH: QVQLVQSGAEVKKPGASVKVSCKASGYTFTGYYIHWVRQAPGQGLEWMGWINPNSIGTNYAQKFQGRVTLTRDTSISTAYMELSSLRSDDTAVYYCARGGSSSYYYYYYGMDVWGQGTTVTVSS VL: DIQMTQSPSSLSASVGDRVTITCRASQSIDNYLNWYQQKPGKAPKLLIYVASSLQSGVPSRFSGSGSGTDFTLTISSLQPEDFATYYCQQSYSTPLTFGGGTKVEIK
Return: 26 RU

Enquiry: Now consider mAb22033 (antibody, V domains shown) VH: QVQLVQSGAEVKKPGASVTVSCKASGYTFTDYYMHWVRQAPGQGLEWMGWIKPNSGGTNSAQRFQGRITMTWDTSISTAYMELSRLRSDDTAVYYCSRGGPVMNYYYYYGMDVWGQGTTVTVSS VL: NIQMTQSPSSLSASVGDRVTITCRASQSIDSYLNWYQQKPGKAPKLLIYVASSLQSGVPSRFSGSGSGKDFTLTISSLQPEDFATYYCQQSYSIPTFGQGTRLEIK .
Return: 56 RU
